Kindly state z-scoreHeLa mean for each of the entries shown.
- System: HeLa cells
- Protocol: Compound screen by flow cytometry: HeLa cell count as surrogate readout of cell viability (z-scoreHeLa); also: test concentration or dose not given here
- Assay type: cell-based, human
- Stated Conditions: PKIS compound screen, mean of 3 replicates
Answers are plain numbers.

> print(dat)
                                   molecule          quantity  measured.value
1  CC(C)c1nc(-c2cccc(NS(=O)(=O)c3ccccc3)c2)c(-c2ccnc(Nc3ccc4c(c3)CN(C)CC4)n2)s1 [GSK1649598A]  z-scoreHeLa mean           -0.86
2  Fc1cc(Cl)ccc1Nc1ccnc2cc(-c3ccc(CN4CCOCC4)o3)ccc12 [GW560109X]  z-scoreHeLa mean            0.33

Attention now shifts to the item below.
Fill blank: measured z-scoreHeLa mean of the molecule [O-][S+]1CCN(Cc2ccc(-c3ccc4ncnc(Nc5ccc(OCc6ccccc6)c(F)c5)c4c3)o2)CC1 [GW576924A] is ____. -0.58

# credit: paper PMC10999543
